assay: inhibitors of E-selectin induction by TNFa, primary screen, imaging, HUVEC, immunofluorescence, MLSMR starter and 10KST1 sets (AID 487); details: HUVEC TNFalpha-induced E-selectin immunofluorescence imaging, at 2 µM; active compounds read high;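 also: signal is fraction of cell area covered by stained E-selectin grains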
reported.endpoint: inhibition (%)

{"columns": ["compound", "reported.endpoint", "result.units", "value.observed"],
 "data": [
  ["CCOC(=O)Cn1c(SC)nc2sc3c(c2c1=O)CC(C)(C)OC3", "inhibition", "%", 1.5],
  ["CCCCNC(=O)c1c(N)n(/N=C/c2cccnc2)c2nc3ccccc3nc12", "inhibition", "%", -130],
  ["CCC(=O)Oc1ccc(C(CC)C(CC)c2ccc(OC(=O)CC)cc2)cc1 (centres undefined)", "inhibition", "%", -70.7],
  ["CCC1(c2ccccc2)C(=O)NCNC1=O", "inhibition", "%", -70],
  ["CNC(=O)c1cc2c(ccc3ccccc32)oc1=N", "inhibition", "%", -64.4],
  ["COc1cccc(NC(=O)CC2SC(=Nc3ccccc3)NC2=O)c1 (centres undefined)", "inhibition", "%", -29.5],
  ["CN1CCc2c(sc3c2C(=O)NC(c2ccco2)N3)C1 (centres undefined)", "inhibition", "%", -9.3],
  ["CC(Cc1ccc(O)c(O)c1)C(C)Cc1ccc(O)c(O)c1 (centres undefined)", "inhibition", "%", -62.1],
  ["CCC1CCCCN1c1nc(-c2cccc(OC)c2O)nc2ccccc12 (centres undefined)", "inhibition", "%", -128],
  ["Cc1csc2nc(CSc3nc4ccccc4o3)cn12", "inhibition", "%", -53.8],
  ["CC(=O)Oc1ccccc1C1OC(=O)c2ccccc2N1C(C)=O (centres undefined)", "inhibition", "%", -136],
  ["CCSc1nnc(NC(=O)C(CC)(C(F)(F)F)C(F)(F)F)s1", "inhibition", "%", -53.9],
  ["CN1CCCN(C(c2ccccc2)c2ccc(Cl)cc2)CC1 (centres undefined)", "inhibition", "%", -6.3],
  ["COc1cccc(-c2nn3c(-c4ccccn4)nnc3s2)c1", "inhibition", "%", -117],
  ["COC(=O)c1cc(OC)c(OC)cc1N", "inhibition", "%", 9.3],
  ["Cc1cc(C)c(C#N)c(SCC(=O)NC2CC2)n1", "inhibition", "%", -12],
  ["O=C(Nc1ccc2c(c1)OCO2)c1cncc(Br)c1", "inhibition", "%", -29.9],
  ["CCOC(=O)CSc1nc2ccccc2c(=O)n1C", "inhibition", "%", -24.4],
  ["COCc1[nH]nc2c1C(c1ccnc3ccccc13)C(C#N)=C(N)O2 (centres undefined)", "inhibition", "%", 26.1],
  ["Fc1ccc2[nH]c3c(N4CCN(Cc5ccc6c(c5)OCO6)CC4)ncnc3c2c1", "inhibition", "%", -93.3],
  ["O=CN1CCN(C(=O)CN2C(=O)c3ccccc3C2=O)CC1", "inhibition", "%", -43.3],
  ["COc1cc(C2C(C#N)=C(N)Oc3cc(C)n(Cc4ccccn4)c(=O)c32)cc2c1OCO2 (centres undefined)", "inhibition", "%", -56.2],
  ["COc1ccccc1-c1cc(-c2cc(Cl)ccc2O)n[nH]1", "inhibition", "%", -9.5],
  ["COc1cccc(N2CCN(C3CC(=O)N(c4cccc(Cl)c4)C3=O)CC2)c1 (centres undefined)", "inhibition", "%", -62.9]
]}
